# Test system: MS2 coat protein
# Method notes: apparent Kd, MS2 coat protein; higher = weaker binding; RNA-MaP array
# Setup conditions: designed as: ON switch for flavin mononucleotide; no ligand
Task for the reader: assign each of the following sequences its reported apparent Kd.
Answers are plain numbers, in nM.

# Primary sequence, Units symbol, apparent Kd
rows = [
    ("GCGUGGCACUGCAUACACACAUGAGGAUCACCCAUGUAUAGUAGAAGGUUCUUCAGCGGGAACAGAAAGGAUAUACUGAUAGAU", "nM", 7.74),
    ("UAACCACAUGAGGAUCACCCAUGUCCCACAUUCGCAGGAUAUGGGUCACUGAGGUCACUACCAGAAGGGCGGAUGC", "nM", 467),
    ("AUGCCACUUAAGAAGGCGGCGUGAUGCUUAGCGUUGAGACAUGAGGAUCACCCAUGUGACGUACCCGAGGAUAUUAAUGGAAUC", "nM", 17),
    ("UGACUGUGUGAGAAGGUGUUCCGCGCCCGGCCACAAGGAUAUCACAACGCUGCCCUACAUGAGGAUCACCCAUGUGAUUGCUAC", "nM", 29.5),
]

Field: next sequence
**Query** MS2 coat protein / apparent Kd / GGUUCGCAUGUAGGAUAUCGCAAUAUAAACAUGAGGAUCACCCAUGUAACAAUGUAAACGGACAACGAGAAGGACAUCAACUCC : value?
**Result** 44.6

====

# System: MS2 coat protein
# Method notes: apparent Kd, MS2 coat protein; higher = weaker binding; RNA-MaP array; FMN 200 µM where present
# Setup conditions: designed as: OFF switch for flavin mononucleotide; no ligand
Parameter measured: apparent Kd (nM)
Numbers only, in nM.

Examples with their reported apparent Kd follow.
# Primary sequence, apparent Kd, nM
measured = [
    ("GCCUUACAUGAGGAUCACCCAUGUGAGGAUAUUAACAGCUGCACUACUGAAGCGGCUGUAAGAAGGCACGUGGU", 30.5),
    ("UUAAAUCAUGUAGGAUAUGCAUGGCGAAGCUACGCAGAAGGACAUGAGGAUCACCCAUGUUAUAGCGUCUGGAAACAGAUGCAA", 101),
    ("UGUAUGGACAGAGGAUAUACGGAUAGGAUCUACUAUCAAACAAGUCCUACAUGAGGAUCACCCAUGUAGAAGGCUGUCCAUACU", 16.4),
    ("GCAUGUUGGUAGGAUAUGCAGCGAAAACCGCGAGUAGAAGGAUUGACAUGAGGAUCACCCAUGUGAACCUAAGG", 27.1),
]

// each sequence listed below needs its apparent Kd
1. UAUGUUUUAGGAUAUUGUACUGCUGACAUGAGGAUCACCCAUGUAUGCUAACUCGGUUGUCGAGAAGGAGAAUAUG
2. AGCUGGUGACAGCAUCCAUCAUAACAUGAGGAUCACCCAUGUAGAAGGCUGUACGGUUACCGUACAGAGGAUAUACAAUGAUGG
3. GGAUCGAGUGUGAGGAUAUGCUGGUCGUAAGAUCAGCAGAAGGCACAUGAGGAUCACCCAUGUGAAAACGGUCC

**Result**
1: 59.4; 2: 7.4; 3: 24.7

====

# System: MS2 coat protein
# Method notes: apparent Kd, MS2 coat protein; higher = weaker binding; RNA-MaP array
# Setup conditions: ligand present: theophylline; designed as: OFF switch for theophylline
Parameter measured: apparent Kd (µM)
Answers are plain numbers, in µM.

# Primary sequence, Assayed target, apparent Kd [µM]
rows = [
    ("ACCUAAGCCACAGAUACCAGAGUAAUAGGCCAAUUUCAAAACAUGAGGAUCACCCAUGUACUCCCUUGGCAGCUGCGAAUCGAAA", "MS2 coat protein", 0.0152),
    ("AUUGUGAACCUGAUCGUAUAAUGUAGCGAUACCAGUAUAAUACAUUACCCUUGGCAGCGCGACACAUGAGGAUCACCCAUGUAAG", "MS2 coat protein", 0.0394),
]

// each sequence listed below needs its apparent Kd
1. AGACAUGAGGAUCACCCAUGUGAAGUGGAUACCAGCCGCAGCGAUGGCCCUUGGCAGCCAGCUUUGUGUCGAUACAUCCGCACUU
2. UUUACCGACACAGAUCACUAAAACCUUGAUACCAGUCCCAGUGGCGACCCUUGGCAGCAAUAUACAUGAGGAUCACCCAUGUGCA

**Result**
1. 0.0258
2. 0.0167

====

# Tested on: MS2 coat protein
# Method notes: apparent Kd, MS2 coat protein; higher = weaker binding; RNA-MaP array; tryptophan 2.4 mM where present
# Setup conditions: ligand present: tryptophan; designed as: ON switch for tryptophan
Parameter measured: apparent Kd
Mention the unit after the number when you answer.

Examples with their reported apparent Kd follow.
# Primary sequence, Assayed target, apparent Kd
rows = [
    ("ACAUGAGGAUCACCCAUGUUUGAUGUUCCUCGAGGACCGGUACGGCCGCCACUCGAACGAGUGGCGCGCGAGUGCGCACUCGCGC", "MS2 coat protein", "12.5 nM"),
    ("ACACAUGAGGAUCACCCAUGUUGAGGAACACGAGGACCGGUACGGCCGCCACUCGACACAUGAGGAUCACCCAUGUGAUCACCCA", "MS2 coat protein", "169 nM"),
    ("UUAUGCAGGUCGGCCGCCACUACACACAUGAGGAUCACCCAUGUAGUUACUGGGUGAAGUGGCAGUAGGACCGGGACCUGCAUAU", "MS2 coat protein", "227 nM"),
    ("GGGAGGGAGGCGGCCGCCACUGAUUUUCAUAUAUAUAUAACAUGAGGAUCACCCAUGUAGAUAUACAGGACCGGGCCUUUUUUUU", "MS2 coat protein", "19.5 nM"),
    ("AUGGAGACCUCGGCCGCCACUCUCCAUGAGGAUCUCCCAUGUAACAUGAGGAUCACCCAUGUGCUGAGGACCGGGAGGUCCUGAA", "MS2 coat protein", "12 nM"),
    ("AUGGAGACCUCGGCCGCCACUCUCCAUGAGGAUCUCCCAUGUAACAUGAGGAUCACCCAUGUACUGAGGACCGGGAGGUCCUUGA", "MS2 coat protein", "10.8 nM"),
]

Field: next sequence
**Query** Report apparent Kd for CUAUAUGGAAACAUAUAGAAGCGAAAGCAACGAGGACCGGUACGGCCGCCACUCGAAGAGUGGUGGACAUGAGGAUCACCCAUGU please.
**Result** 52.8 nM

====

Task for the reader: assign each of the following sequences its reported apparent Kd.
# Tested on: MS2 coat protein
# Method notes: apparent Kd, MS2 coat protein; higher = weaker binding; RNA-MaP array; FMN 200 µM where present
# Setup conditions: designed as: ON switch for flavin mononucleotide; no ligand
Mention the unit after the number when you answer.

// each sequence listed below needs its apparent Kd
1. GGAGCCGGUACUGAGGAUAUUCAUAUUAAAACAUGAGGAUCACCCAUGUAGGCCAGAAGGCCUUGGGAGAAGGCAGACCAGCUCG
2. CCCAUCGCAUGAGGAUAUGGUCAGCUUUGCUGACCAGAAGGCAUGUCAAUAGACAUGAGGAUCACCCAUGUAGUUAAGAUGGGA
3. UUAGCAUACCGAGGAUAUUCAUAUAAUAAAUAAACAUGAGGAUCACCCAUGUGGCGAAAGCCUAGGGAGAAGGCGGAAUGCUAA
4. CGGUCGAUAUCAGGAUAUCGAUUAAUUACAUGAGGAUCACCCAUGUUGACAUGGAAUAUAACAUGCGAGAAGGGAUUACGAUCG

**Result**
391 nM
675 nM
220 nM
27.6 nM

====

# Test system: MS2 coat protein
# Method notes: apparent Kd, MS2 coat protein; higher = weaker binding; RNA-MaP array; FMN 200 µM where present
# Setup conditions: designed as: ON switch for flavin mononucleotide; no ligand
Parameter measured: apparent Kd

Examples with their reported apparent Kd follow.
# Primary sequence, Assayed target, apparent Kd
rows = [
    ("GAUUGACGACAAUUACAUGAGGAUCACCCAUGUUGUAGUAUGCAGGAUAUGUGGUAUAUUAUUUAACAGAAGGGCAAUAAUUUU", "MS2 coat protein", "81 nM"),
    ("UUGGACGUCAUAGGAUAUGUAGGAUAUUCCUACAUGAGGAUCACCCAUGUUGACAUGGAAGAAGGACAGAAGGACGAUGUCCAU", "MS2 coat protein", "665 nM"),
    ("UGUUGUAUUACAGGAUAUCUAUUGGUUUUAUUUAGAGAAGGGUAUUCACAUGAGGAUCACCCAUGUAUAUACGAGGAAGUUGUG", "MS2 coat protein", "60.5 nM"),
    ("GGGUACAUCGGAGGAUAUCAUGUAAAUACAUGAGGAUCACCCAUGUCGAUGGAGACAUCGGAGAUUGAGAAGGCUGAUGUACCG", "MS2 coat protein", "188 nM"),
    ("AAAAGACAUGAGGAUCACCCAUGUCAAAACGUGGGAGGAUAUGUAUGGAAACCAGACUGUACAGAAGGCCUCUGUC", "MS2 coat protein", "41.7 nM"),
]

// each sequence listed below needs its apparent Kd
1. AUACCUUAUGAGAAGGCGAUCAUGAAACAUGAUCGAGGAUAUCAUGUAAACAUGAGGAUCACCCAUGUAUGGGUAUUAUGGUAC
2. GUAGCAUACCGAGGAUAUUCAUACCGGAAACGGACAUGAGGAUCACCCAUGUGGCGAAAGCCUUGGGAGAAGGCGGAAUGCUAC
3. GUAGCAUACAGAGGAUAUUCAAAACCGGAAACGGACAUGAGGAUCACCCAUGUGGCGAAAGCCUGGGAGAAGGCUGAAUGCUAC
4. GAGUAGUUAAAAGGAUAUUGAUUAUUGUAGGAUCAAGAAGGUUUUAACAUGAGGAUCACCCAUGUAGGACUAUUCCUGUGUAUC

**Result**
28.4 nM
552 nM
28.6 nM
16.5 nM

// each sequence listed below needs its apparent Kd
1. GGACGUCACAUUUACAUGAGGAUCACCCAUGUCUCUUGAUAUGAGGAUAUGUAUACGAAUCGUAUACAGAAGGCAUGGACGUCC
2. GAACCUAAGUUAGGAUAUGUCUAAGAAAGCUGACAUGAGGAUCACCCAUGUGAAUGCAAAGAAUGGCAGAAGGGAUAUGGGUGG
3. UCAUUUAUCACAGGAUAUAUUAGUAUACAGUUGUUUGGCUCUUACAUAUUAAUAGAAGGGUGAAACAUGAGGAUCACCCAUGUA
4. AUAAUUAAGCGAGGAUAUAUAUAGAAUAAUUAUAUAGAAGGCGCAAAACAUGAGGAUCACCCAUGUCACCCAUGUUGUGUGUAA
5. UAAUAAUUAUGAGGAUAUAUACAACAUGAGGAUCACCCAUGUACCCAUGUAGUAGAAGGCAUAUUUUUAGUUAAUAAUAUAACU

**Result**
1: 71.7 nM; 2: 73 nM; 3: 621 nM; 4: 121 nM; 5: 82.2 nM
